experiment: protein stability index of a GFP-peptide fusion (GPS, HEK-293T) (PSI 1-6); higher = more stable; settings: treatment: DMSO; c terminus: a fixed tail appended;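 also: 24-mer peptide tiles fused after GFP, lentivirally expressed, FACS-sorted into six equal bins by GFP/DsRed ratio, decoded by Illumina sequencing, PSI is the read-weighted mean bin number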
measureName: protein stability index
Give the figure by itself; no unit, no explanation.

# protein stability index (sequence: YQARKPLWFYNTSLKFFLNKPMLA [RHOBTB3] ) is 2.67

# protein stability index (sequence: ASSRASENQSPSSSNYFSPRESTD [ZBTB22] ) is 5.3

# protein stability index (sequence: LDKQMSRDEHRARAMKIPFTNDKI [NFE2L1] ) is 4.13

# protein stability index (sequence: ESQASRKEEGLPEEEPSHVTGREG [ZNF8] ) is 5.62

# protein stability index (sequence: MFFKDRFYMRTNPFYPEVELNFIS [MMP1] ) is 2.44

# protein stability index (sequence: AGELRKPTQEEWRQVVDILWSDPM [PPEF2] ) is 3

# protein stability index (sequence: VLVLCVFNSILPGVLILFLTFFAF [SOAT1] ) is 3.37

# protein stability index (sequence: RTLWSGLPATLVMTVPATAIYFTA [SLC25A39] ) is 3.07

# protein stability index (sequence: LGPSPQRDPQAVKERALSAPWLSL [ZNF263] ) is 2.72

# protein stability index (sequence: QLLLIKALQEKLWNVAAPLYLKQS [INTS4] ) is 3.14

# protein stability index (sequence: QNIQSWSNHSWNTQTWCTQSWNNQ [NANOGP8] ) is 2.53

# protein stability index (sequence: LASQNKPLWQCYLGRFNDINVPIR [PDS5B] ) is 2.03

# protein stability index (sequence: AEAERLDVKAMGPLVLTEVLFNEK [EIF5] ) is 4.01
